Assay: chemical genetic growth profiling, strain panel (AID 1159580);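 also: tested at 20 µM; growth read once vehicle control cultures reached saturation at 30 °C; 1 = growth at the plate median or of vehicle wells; lower values mean less growth of the strain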
Details: S. cerevisiae deletion strains, growth OD, locus YKL160W, strain elf1, active compounds read low
Among all 5,500 compounds or so, about 2,000 (36%) were called active. Another 18% or so got no clear call; they are omitted. The list shows a part of the results.
experimental_readout: normalized growth
Answers are plain numbers.

Sample records with normalized growth:
OC(CCN1CCCCC1)(c1ccccc1)C1CCCCC1 (stereo unspecified) :: 0.96
NC(Cc1c[nH]c2ccccc12)C(=O)O (stereo unspecified) :: 1.02
COc1ccc2c3c([nH]c2c1)C(C)=NCC3 :: 1.01
Nc1c2ccccc2nc2ccccc12 (tested in a mixture with another compound) :: 0.597
CC1=NS(=O)(=O)c2cc(Cl)ccc2N1 :: 0.981
CCOc1ccc2nc3cc(N)ccc3c(N)c2c1 :: 0.733
COC(=O)C[C@H]1C(C)(C)C(=O)[C@@H]2CC3C4=CC(=O)O[C@@H](c5ccoc5)[C@]4(C)CCC3[C@@]1(C)C2=O (stereo partly specified) :: 0.992
NNc1nncc2ccccc12 :: 0.995
CC(=O)NCc1c(I)c(NC(C)=O)c(I)c(C(=O)O)c1I :: 0.981
COc1ccc2c(c1)c(CC(=O)O)c(C)n2C(=O)c1ccc(Cl)cc1 :: 0.98

Now look at this entry.
Q: What does the record list as normalized growth for OC(CCN1CCCC1)(c1ccccc1)C1CCCCC1 (stereo unspecified) ?
Ans: 0.975

---

Record form. Attribute: normalized growth. Fill in for each entry.
Test: chemical genetic growth profiling, strain panel (AID 1159580);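 also: tested at 20 µM; growth read once vehicle control cultures reached saturation at 30 °C; 1 = growth at the plate median or of vehicle wells; lower values mean less growth of the strain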
Conditions: S. cerevisiae deletion strains, growth OD, locus YDL132W, strain cdc53, active compounds read low
In all, about 5,500 compounds went through this assay and about 2,000 (36%) were called active. Inconclusive results (about 18%) are left out. The list shows a part of the results.
Numbers only.

CCOC(=O)c1cc(CC)sc1NC(=O)c1ccc([N+](=O)[O-])o1 :: 0.996
Cc1nc(-c2ccccn2)[nH]c(=O)c1Cc1c(Cl)cccc1Cl :: 0.941
Cc1ccc(C)c(CSc2nc(C3CCCCC3)c(C#N)c(=O)[nH]2)c1 :: 0.973
O=C(c1ccc(Cl)cc1)N(Cc1ccccc1)Cc1cccnc1 :: 0.993
Nc1ccccc1C(=O)N/N=C\c1cc(Br)ccc1O :: 0.97

Q: What does the record list as normalized growth for "OC1CCN(c2cc(C(F)(F)F)nc3cc(Cl)cc(Cl)c23)CC1" ?
Ans: 0.969

---

Assay: chemical genetic growth profiling, strain panel (AID 1159580);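 also: tested at 20 µM; growth read once vehicle control cultures reached saturation at 30 °C; 1 = growth at the plate median or of vehicle wells; lower values mean less growth of the strain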
Settings: S. cerevisiae deletion strains, growth OD, locus YOR061W, strain CKA2, active compounds read low
The campaign covered roughly 5,500 compounds. About 2,000 (36%) were called active. Inconclusive results (about 18%) are left out. The list shows a part of the results. Where a SMILES comes first, the peptide text is derived from it. The star is where a group is joined. For = O=C*
experimental_readout: normalized growth
One number for each entry.

Nc1c2ccccc2nc2ccccc12 :: 0.824
COc1ccc2c3c([nH]c2c1)C(C)=NCC3 :: 1
O=C(NCCNc1ncc(Cl)cc1C(F)(F)F)C(F)(F)Sc1ccccc1 :: 0.992

// each molecule listed below needs its normalized growth
1. N[C@H](C(=O)O)[C@@H]1CC(Cl)=NO1
2. NNC(=O)c1ccncc1
3. NNc1nncc2ccccc12
4. Cc1ccc(-c2cc(C(F)(F)F)nn2-c2ccc(S(N)(=O)=O)cc2)cc1
5. CC(C)=CCCC1(C)C=Cc2c(O)c3c(c(CC=C(C)C)c2O1)OC12C(=CC4CC1C(C)(C)OC2(C/C=C(\C)C(N)=O)C4=O)C3=O (stereo unspecified)

Ans:
1. 0.483
2. 1.02
3. 1.01
4. 0.998
5. 0.963

// each molecule listed below needs its normalized growth
1. Nc1c2c(nc3ccccc13)CCCC2
2. Cc1csc(NC(=O)Nc2ccc(C(F)(F)F)cc2)c1
3. Cc1csc(NC(=O)Nc2ccc(C(F)(F)F)cc2)c1Cl
4. CC(=O)NC(C(=O)O)C(C)(C)SN=O (stereo unspecified)
5. CC1C(=O)OC2C1CCC1(C)C=CC(=O)C3(C)OC213 (stereo unspecified)
6. COC1=C[C@@H]2[C@@H]3Cc4ccc(OC)c(O)c4[C@]2(CCN3C)CC1=O
7. CC(C)=CCCC1(C)C=Cc2c(O)c3c(c(CC=C(C)C)c2O1)OC12C(=CC4CC1C(C)(C)OC2(C/C=C(/C)C(=O)O)C4=O)C3=O (stereo unspecified)
8. CSCCC(NC=O)C(=O)NC(Cc1ccccc1)C(=O)O (stereo not drawn) (For-Met-Phe-OH; configuration not given here)

Ans:
[1.02, 0.714, 0.842, 1.01, 1.01, 0.962, 0.785, 1]

// each molecule listed below needs its normalized growth
1. Cc1nc(-c2ccccn2)[nH]c(=O)c1Cc1c(Cl)cccc1Cl
2. Cc1ccnc(NS(=O)(=O)c2ccc(N)cc2)n1
3. CC(C)=CCCC1(C)C=Cc2c(O)c3c(c(CC=C(C)C)c2O1)OC12C(=CCCC1C(C)(C)O[C@@]2(C/C=C(\C)C(=O)O)C(=O)O)C3=O (stereo partly specified)
4. O=C1c2c(O)cccc2Cc2cccc(O)c21

Ans:
0.827
1.01
0.831
1.01
